Test: Permeability of compound at 100 uM at pH 7.4 incubated for 4 hrs by PAMPA-GIT assay
Type: ADME
Conditions: read-out: permeability
Quantity Measured: Papp at 4 h, 100 µM (×10⁻⁶ cm/s)
Give bare numbers, in ×10⁻⁶ cm/s.

Solved entries:
[
  {
    "Smiles Input": "Cc1ccc(-c2cc3nc(NC(C)C)[nH]c(=O)c3o2)cc1",
    "Papp at 4 h, 100 µM / ×10⁻⁶ cm/s": 76.9
  },
  {
    "Smiles Input": "Cc1ccc(-c2cc3nc(NC(C)(C)C)[nH]c(=O)c3s2)cc1.Cl",
    "Papp at 4 h, 100 µM / ×10⁻⁶ cm/s": 0.46
  }
]

Prompt: Please supply the value of reported Papp at 4 h, 100 µM for the item "Cc1ccc(-c2cc3nc(NC(C)(C)C)[nH]c(=O)c3s2)cc1"
Completion: 2.05

====

Assay: Cytotoxicity against human HepG2 cells assessed as reduction in cell viability incubated for 72 hrs by MTT assay
Assay type: toxicity, cell-based
Settings: HepG2 cells
Consider the following compounds; for each one, report its CC50 at 72 h.
One number for each entry, in µM.

Solved entries:
[
  {
    "Smiles Input": "CC(C)(C)Nc1nc2sc(-c3ccc(Cl)cc3)cc2c(=O)[nH]1",
    "CC50 at 72 h / µM": 21.4
  },
  {
    "Smiles Input": "Cc1ccc(-c2cc3nc(NC(C)C)[nH]c(=O)c3o2)cc1",
    "CC50 at 72 h / µM": 20.4
  },
  {
    "Smiles Input": "CCOC(=O)c1[nH]c(-c2ccc(C)cc2)c2c(=O)[nH]c(NC(C)(C)C)nc12",
    "CC50 at 72 h / µM": 7.4
  },
  {
    "Smiles Input": "Cc1c(-c2ccc(F)cc2)sc2c(=O)[nH]c(NC(C)C)nc12",
    "CC50 at 72 h / µM": 19.7
  },
  {
    "Smiles Input": "Cc1ccc(-c2cc3nc(NC(C)(C)C)[nH]c(=O)c3o2)cc1",
    "CC50 at 72 h / µM": 10.9
  }
]

Prompt: Please supply the value of reported CC50 at 72 h for the item "Cc1ccc(-c2cc3c(=O)[nH]c(NC(C)(C)C)nc3s2)cc1"
Completion: 20.5

====

Assay: Permeability of compound at 100 uM at pH 6 incubated for 4 hrs by PAMPA-GIT assay
Format: ADME
Conditions: read-out: permeability
Quantity Measured: Papp at 4 h, 100 µM

[
  {
    "Smiles Input": "Cc1ccc(-c2cc3nc(NC(C)C)[nH]c(=O)c3o2)cc1",
    "Quantity Measured": "Papp at 4 h, 100 µM",
    "Test Value": "64.3 ×10⁻⁶ cm/s"
  }
]

Next compound, please.
Prompt: Please supply the value of reported Papp at 4 h, 100 µM for the item "Cc1ccc(-c2cc3nc(NC(C)(C)C)[nH]c(=O)c3s2)cc1"
Completion: 1.86 ×10⁻⁶ cm/s

====

Experiment: Selectivity index, ratio of CC50 for cytotoxicity against human HepG2 cells to EC50 for antiplasmodial activity against chloroquine,pyrimethamine and proguanil resistant blood stage Plasmodium falciparum K1
Assay type: toxicity, cell-based
Details: HepG2 cells, read-out: Ratio CC50/EC50
Quantity Measured: selectivity ratio
One number for each entry.

Solved entries:
[
  {
    "Smiles Input": "Cc1ccc(-c2cc3nc(NC(C)C)[nH]c(=O)c3o2)cc1",
    "selectivity ratio": 227
  },
  {
    "Smiles Input": "Cc1c(-c2ccc(F)cc2)sc2c(=O)[nH]c(NC(C)C)nc12",
    "selectivity ratio": 4.6
  },
  {
    "Smiles Input": "Cc1ccc(-c2cc3c(=O)[nH]c(NC(C)(C)C)nc3s2)cc1",
    "selectivity ratio": 0.6
  }
]

Next compound, please.
Prompt: Please supply the value of reported selectivity ratio for the item "CCOC(=O)c1[nH]c(-c2ccc(C)cc2)c2c(=O)[nH]c(NC(C)(C)C)nc12"
Completion: 0.4

====

Consider the following compounds; for each one, report its Ratio CC50/EC50.
Assay: Selectivity index, ratio of CC50 for cytotoxicity against human HepG2 cells to EC50 for antiplasmodial activity against chloroquine,pyrimethamine and proguanil resistant blood stage Plasmodium falciparum K1
Assay type: toxicity, cell-based

[
  {
    "Smiles Input": "Cc1ccc(-c2cc3nc(NC(C)C)[nH]c(=O)c3[se]2)cc1",
    "Test Value": "> 31.3"
  },
  {
    "Smiles Input": "Cc1ccc(-c2cc3nc(NC(C)(C)C)[nH]c(=O)c3[se]2)cc1.Cl",
    "Test Value": "> 24"
  },
  {
    "Smiles Input": "Cc1ccc(-c2cc3nc(NC(C)(C)C)[nH]c(=O)c3o2)cc1",
    "Test Value": 13.6
  },
  {
    "Smiles Input": "Cc1ccc(-c2cc3nc(NC(C)C)[nH]c(=O)c3[se]2)cc1.Cl",
    "Test Value": "> 13"
  }
]

Would you mind giving Ratio CC50/EC50 for every compound in the list below?
1. Cc1ccc(-c2cc3nc(NC(C)(C)C)[nH]c(=O)c3[se]2)cc1
2. Cc1ccc(-c2cc3nc(NC(C)(C)C)[nH]c(=O)c3o2)cc1.Cl

Completion:
> 6
72.3

====

Test: Cytotoxicity against human HepG2 cells assessed as reduction in cell viability incubated for 72 hrs by MTT assay
Assay type: toxicity, cell-based
Settings: HepG2 cells
Quantity Measured: CC50 at 72 h

[
  {
    "Smiles Input": "CC(C)(C)Nc1nc2nc(-c3ccccc3)sc2c(=O)[nH]1",
    "Test Value": "> 25 µM"
  }
]

Would you mind giving CC50 at 72 h for every compound in the list below?
1. CC(C)(C)Nc1nc2sc(-c3ccc(F)cc3)cc2c(=O)[nH]1
2. CC(C)(C)Nc1nc2cc(-c3ccc(Cl)cc3)oc2c(=O)[nH]1
3. Cc1c(-c2ccc(Cl)cc2)sc2c(=O)[nH]c(NC(C)C)nc12
4. CC(C)(C)Nc1nc2cc(-c3ccc(F)cc3)oc2c(=O)[nH]1
5. CC(C)(C)Nc1nc2sc(-c3ccccc3)cc2c(=O)[nH]1
6. Cc1ccc(-c2nc3nc(NC(C)(C)C)[nH]c(=O)c3s2)cc1

Completion:
1. > 25 µM
2. > 6.25 µM
3. > 25 µM
4. > 3.12 µM
5. > 12.5 µM
6. > 5 µM

====

Test: Selectivity index, ratio of CC50 for cytotoxicity against human HepG2 cells to EC50 for antiplasmodial activity against chloroquine,pyrimethamine and proguanil resistant blood stage Plasmodium falciparum K1
Assay type: toxicity, cell-based
Conditions: HepG2 cells, read-out: Ratio CC50/EC50
Consider the following compounds; for each one, report its selectivity ratio.

Solved entries:
[
  {
    "Smiles Input": "CC(C)(C)Nc1nc2cc(-c3ccc(F)cc3)oc2c(=O)[nH]1",
    "selectivity ratio": "> 1.1"
  },
  {
    "Smiles Input": "Cc1c(-c2ccc(Cl)cc2)sc2c(=O)[nH]c(NC(C)C)nc12",
    "selectivity ratio": "> 5.7"
  },
  {
    "Smiles Input": "CC(C)(C)Nc1nc2cc(-c3ccc(Cl)cc3)oc2c(=O)[nH]1",
    "selectivity ratio": "> 15.6"
  },
  {
    "Smiles Input": "Cc1ccc(-c2nc3nc(NC(C)(C)C)[nH]c(=O)c3s2)cc1",
    "selectivity ratio": "> 1.1"
  },
  {
    "Smiles Input": "CC(C)(C)Nc1nc2sc(-c3ccccc3)cc2c(=O)[nH]1",
    "selectivity ratio": "> 0.4"
  }
]

Prompt: Please supply the value of reported selectivity ratio for the item "CC(C)(C)Nc1nc2sc(-c3ccc(Cl)cc3)cc2c(=O)[nH]1"
Completion: < 0.4
